IC50, Tau40 assay (ThT): recorded values
biological target: Tau40 P301L protein (human); experiment: cell-based or functional assay
Square brackets hold non-standard residues; d marks the D form. Ends that are not written are not given here.
Output spec: scalar in nM, unitless text.

Look over these answered cases.
[dK][dL][dK][dI][dR][dI][dH][dY] [klkirihy (PEPTIDE ID NO: 243)] | 1010
[dL][dK][dL][dH][dL][dH][dF][dH] [lklhlhfh (PEPTIDE ID NO: 434)] | 1010

Request: Query IC50, Tau40 assay (ThT) for [dT][dW][dR][dL][dK][dV][dR][dW] [twrlkvrw (PEPTIDE ID NO: 205)]
Result: 750

Request: Query IC50, Tau40 assay (ThT) for [dF][dK][dL][dR][dL][dR][dH][dW] [fklrlrhw (PEPTIDE ID NO: 123)]
Result: 1070

Request: Query IC50, Tau40 assay (ThT) for [dL][dR][dL][dK][dV][dR][dW][dW] [lrlkvrww (PEPTIDE ID NO: 221)]
Result: 850

Request: Query IC50, Tau40 assay (ThT) for [dL][dR][dV][dQ][dV][dR][dL] [lrvqvrl (PEPTIDE ID NO: 441)]
Result: 2130

Request: Query IC50, Tau40 assay (ThT) for [dW][dK][dV][dK][dF][dQ][dH][dW] [wkvkfqhw (PEPTIDE ID NO: 94)]
Result: 1690

Request: Query IC50, Tau40 assay (ThT) for [dL][dK][dI][dR][dI][dH][dY][dF] [lkirihyf (PEPTIDE ID NO: 250)]
Result: 1110
